All figures here come from patent US20200247894A1.

# assay_system: T1, Macaca fascicularis IL2Rγ extracellular domain expressed with a C-terminal myc-myc-hexahistidine tag (Macaca fascicularis)
# T1 construct: also called mfIL-2Rg-MMH; mfIL-2RG-MMH
# T1 chain: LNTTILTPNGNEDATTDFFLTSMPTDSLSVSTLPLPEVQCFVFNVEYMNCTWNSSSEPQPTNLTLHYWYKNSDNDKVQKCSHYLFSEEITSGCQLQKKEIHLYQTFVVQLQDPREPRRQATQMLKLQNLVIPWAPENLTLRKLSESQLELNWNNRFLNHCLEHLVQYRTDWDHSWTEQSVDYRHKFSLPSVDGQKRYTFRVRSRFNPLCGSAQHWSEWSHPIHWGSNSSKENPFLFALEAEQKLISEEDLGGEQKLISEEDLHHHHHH
# measurement_notes: SPR Biacore 4000, mAb captured by anti-hFc, 37C, dissociation in PBS-T pH 7.4
readout: 100 nM Ag Bound (RU)
// note: answer is a bare numeric in RU

Q. Which 100 nM Ag Bound (RU) reading was recorded for the binder H4H12884P (antibody, human IgG4 S228P, kappa, V domains shown, anti-IL2Rγ monoclonal antibody expressed with human IgG4 Fc) VH: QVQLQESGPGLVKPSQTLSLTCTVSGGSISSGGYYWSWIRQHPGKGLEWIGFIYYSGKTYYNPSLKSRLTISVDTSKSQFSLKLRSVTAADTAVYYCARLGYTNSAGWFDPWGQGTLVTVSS VL: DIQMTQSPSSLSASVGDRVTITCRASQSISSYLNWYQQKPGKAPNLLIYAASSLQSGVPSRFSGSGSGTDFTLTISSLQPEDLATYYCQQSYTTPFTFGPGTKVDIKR ?
A. 171
